Every entry's value here was drawn from patent US20260132123A1.

- ASSAY_METHOD_TEXT: Mouse hepatocyte stability
- Assay type: in vitro ADME
- ASSAY_CONDITIONS: hepatocyte metabolism category, mouse
OUTCOME_MEASURE: Heps Category

[
  {
    "COMPOUND": "O=C(c1[nH]ncc1Cl)N1CCC[C@H]1c1ccccc1-c1cccc(O)c1 (single isomer, unassigned)",
    "OUTCOME_MEASURE": "Heps Category",
    "RECORDED_RESULT": "High"
  },
  {
    "COMPOUND": "O=C(c1sccc1Cl)N1CCC[C@H]1c1ccccc1-c1cccc(O)c1 (single isomer, unassigned)",
    "OUTCOME_MEASURE": "Heps Category",
    "RECORDED_RESULT": "High"
  },
  {
    "COMPOUND": "Cc1ncc(CN(C)c2cccc(N(CC(C)C)C(=O)c3ccccc3F)c2)[nH]1",
    "OUTCOME_MEASURE": "Heps Category",
    "RECORDED_RESULT": "High"
  }
]
